// provenance: the RNAGym collection of RNA variant scans (doi:10.7554/elife.80360)

B1: Hairpin Ribozyme (parent)
chain: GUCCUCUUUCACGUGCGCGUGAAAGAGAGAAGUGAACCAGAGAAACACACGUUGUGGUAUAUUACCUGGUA

Variants of: B1
Test: self-cleavage, relative activity (ratio to wild type); higher = more cleavage; co-transcriptional
Result type: self-cleavage
Reply: number alone, nothing else.

// worked examples, self-cleavage included
>  <Sequence data>
GUCCUCUUUCACGUGCGCGUGAAAGAUAGAAGUGAACCAGCGAAACACACGUUGUGGUAUAUUACCUGGUA [G27U A41C]

>  <Result type>
self-cleavage

>  <Value observed>
0.423

$$$$
>  <Sequence data>
GUCCUCUUUCACGUGCGCGUGUAAGAGAGAAGUGAACCAGAGAAACACACUUUGUGGUAUAUUACCUGGUA [A22U G51U]

>  <Result type>
self-cleavage

>  <Value observed>
0.761

$$$$
>  <Sequence data>
GUCCUCUUUCACGCGCGCGUGAAAGAGAGAAUUGAACCAGAGAAACACACGUUGUGGUAUAUUACCUGGUA [U14C G32U]

>  <Result type>
self-cleavage

>  <Value observed>
0.138

$$$$
>  <Sequence data>
GUCCUCUUUCACGUGCGCGUGAAAGAGAGAAGUGUACCAGAGAAACACACGUUGUGGUAUAUUACCUGCUA [A35U G69C]

>  <Result type>
self-cleavage

>  <Value observed>
0.368

$$$$
>  <Sequence data>
GUCCUCUUUCACGUGCGCGUGCAAGAGAGAAGUGAACCAGAGAAACACACGUUGUGGUAUAUUACUUGGUA [A22C C66U]

>  <Result type>
self-cleavage

>  <Value observed>
0.649

$$$$

Name the recorded self-cleavage for GUCCUCUUUCACGUGCGCGUGAAGGAGAGAAGUGAACCUGAGAAACACACGUUGUGGUAUAUUACCUGGUA [A24G A39U] .
0.473

Same for GUCCUCUUUCACGUGCGCGUGAAAGAGAGAAGUGAACCAGAGAAAAACACAUUGUGGUAUAUUACCUGGUA [C46A G51A]
0.215

Same for GUCCUCUUUCACGUGCGCGUGAAGGAGAGAAGUGAACCAGAGAAACACACGUUGUGGUAUAAUACCUGGUA [A24G U62A]
0.316

Same for GUCCUCUUUCACUUGCGCGUAAAAGAGAGAAGUGAACCAGAGAAACACACGUUGUGGUAUAUUACCUGGUA [G13U G21A]
0.595

Same for GGCCUCUUCCACGUGCGCGUGAAAGAGAGAAGUGAACCAGAGAAACACACGUUGUGGUAUAUUACCUGGUA [U2G U9C]
0.231

Same for GUCCUCUUUCACGUGCGCGUGAAAGAGAGAAGUGAACCAGAGGAACACACGUUGUGGUAUAUUACCUUGUA [A43G G68U]
0.092

Same for GUCCUCUUUCACGAGCGCGUGAAAGAGAGAAGUGAACCAGAGAAACACCCGUUGUGGUAUAUUACCUGGUA [U14A A49C]
0.117
